Test system: HOP-62 multicell spheroids with HUVEC/MSC, viability
Experiment: Anticancer human tumor HOP-62 cell line growth inhibition [KRAS2];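 note: viability read after a week of compound exposure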
Conditions: curve of first compound; second compound 1 µM
Exercise: for every item that follows, state its recorded IC50.
Respond numerically; units are µM and should not be typed.

Query block: IC50 lookup needed for CC(=O)Nc1cccc(-n2c(=O)n(C3CC3)c(=O)c3c(Nc4ccc(I)cc4F)n(C)c(=O)c(C)c32)c1 + CC1OCC2(CCN(c3cnc(Sc4ccnc(N)c4Cl)c(N)n3)CC2)C1N , thanks.
Result block: 0.000167

Query block: Name the reported IC50 value associated with the molecule COc1cc2nccc(Oc3ccc(NC(=O)C4(C(=O)Nc5ccc(F)cc5)CC4)cc3)c2cc1OC + CNCc1ccccc1-c1csc(C(C)Nc2nc(C)nc3cc(OC)c(OC)cc23)c1
Result block: 3.67

---

Test system: HOP-62 multicell spheroids with HUVEC/MSC, viability
Assay: Anticancer human tumor HOP-62 cell line growth inhibition [KRAS2];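 note: viability read after a week of compound exposure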;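 for viability, T/C: 100% = DMSO vehicle-treated spheroids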
Conditions: second compound 1 µM; first compound 0.1 µM; stronger effect = lower value
observationType: viability, T/C (%)
Respond with the bare value in %.

Query block: Which viability, T/C value is on record for CC(=O)OC12COC1CC(O)C1(C)C(=O)C(O)C3=C(C)C(OC(=O)C(O)C(NC(=O)OC(C)(C)C)c4ccccc4)CC(O)(C(OC(=O)c4ccccc4)C21)C3(C)C (stereo not given) + CC1OCC2(CCN(c3cnc(Sc4ccnc(N)c4Cl)c(N)n3)CC2)C1N ?
Result block: 32.7

Query block: What value of viability, T/C has been recorded for this entry: CCNC(=O)CC1N=C(c2ccc(Cl)cc2)c2cc(OC)ccc2-n2c(C)nnc21 (stereo not given) + CNCc1ccccc1-c1csc(C(C)Nc2nc(C)nc3cc(OC)c(OC)cc23)c1
Result block: 54.3

Query block: So what does the record say about viability, T/C for CCN1CCN(Cc2ccc(Nc3ncc(F)c(-c4cc(F)c5nc(C)n(C(C)C)c5c4)n3)nc2)CC1 + C=CC(=O)N1CCN(c2nc(OCC3CCCN3C)nc3c2CCN(c2cccc4cccc(C)c24)C3)CC1CC#N ?
Result block: 37.1

Query block: Return reported viability, T/C; argument: CN(C)C/C=C/C(=O)Nc1cc2c(Nc3ccc(F)c(Cl)c3)ncnc2cc1O[C@H]1CCOC1 + CNCc1ccccc1-c1csc(C(C)Nc2nc(C)nc3cc(OC)c(OC)cc23)c1
Result block: 101

Query block: Query: viability, T/C; subject: CC1COCCN1c1cc(-c2ccnn2C)c2ccnc(-c3ccn[nH]3)c2n1 (stereo not given) + C=CC(=O)N1CCN(c2nc(OCC3CCCN3C)nc3c2CCN(c2cccc4cccc(C)c24)C3)CC1CC#N
Result block: 9.29

Query block: I'd like to know its viability, T/C. The molecule in question is CC1(C)CCC(CN2CCN(c3ccc(C(=O)NS(=O)(=O)c4ccc(NCC5CCOCC5)c([N+](=O)[O-])c4)c(Oc4cnc5[nH]ccc5c4)c3)CC2)=C(c2ccc(Cl)cc2)C1 + C=CC(=O)N1CCN(c2nc(=O)n(-c3c(C)ccnc3C(C)C)c3nc(-c4c(O)cccc4F)c(F)cc23)C(C)C1
Result block: 57.1

Query block: For the molecule COc1cc2nccc(Oc3ccc(NC(=O)C4(C(=O)Nc5ccc(F)cc5)CC4)cc3)c2cc1OC + CC1OCC2(CCN(c3cnc(Sc4ccnc(N)c4Cl)c(N)n3)CC2)C1N , what viability, T/C is on record?
Result block: 50.5

Query block: Given the entry CC(=O)OC12COC1CC(O)C1(C)C(=O)C(O)C3=C(C)C(OC(=O)C(O)C(NC(=O)OC(C)(C)C)c4ccccc4)CC(O)(C(OC(=O)c4ccccc4)C21)C3(C)C (stereo not given) + C=CC(=O)N1CCN(c2nc(=O)n(-c3c(C)ccnc3C(C)C)c3nc(-c4c(O)cccc4F)c(F)cc23)C(C)C1 , report its measured viability, T/C.
Result block: 28

Query block: Using the record for CC1COCCN1c1cc(-c2ccnn2C)c2ccnc(-c3ccn[nH]3)c2n1 (stereo not given) + CC1OCC2(CCN(c3cnc(Sc4ccnc(N)c4Cl)c(N)n3)CC2)C1N , report its viability, T/C.
Result block: 20.2

Query block: Requested read-out: viability, T/C. Entry: CC(C)n1nc(-c2ccc3oc(N)nc3c2)c2c(N)ncnc21 + C=CC(=O)N1CCN(c2nc(=O)n(-c3c(C)ccnc3C(C)C)c3nc(-c4c(O)cccc4F)c(F)cc23)C(C)C1
Result block: 8.43
